# credit: PubChem BioAssay (NCI)

Tested on: MALME-3M melanoma
Experiment: NCI tumour cell line growth inhibition, 48 h; in the data active = GI50 below about 0.43 µM; inactive = the rest
Classes used: active, inactive

smiles_notation: COC(=O)[C@]12CC[C@@H](C)[C@H](C)[C@@H]1C1=CC[C@@H]3[C@@]4(C)C[C@@H](OC(C)=O)[C@H](O)[C@@](C)(CO)[C@@H]4[C@H](O)C[C@@]3(C)[C@]1(C)CC2
group: inactive
//
smiles_notation: CCOc1ccccc1C(=O)/C=C/c1cc2ccccc2[nH]c1=O
group: active
//
smiles_notation: Nc1c(C(=O)N/N=C/c2ccco2)cnn1-c1ccnc2c(C(F)(F)F)cccc12
group: inactive
//
smiles_notation: COc1cc(-c2cc(-c3nc4ccc(F)cc4[nH]3)[nH]n2)cc(OC)c1OC
group: inactive
//
smiles_notation: N=C(N)c1ccc(-c2ccc(-c3ccccc3)s2)s1
group: inactive
//
smiles_notation: COc1ccc2nc3c(n2c1)C(=O)C(=O)c1ccccc1-3
group: inactive
//
smiles_notation: Fc1ccc(-c2ncn(C3CCNCC3)c2-c2ccnc(Oc3cccc(C(F)(F)F)c3)n2)cc1
group: inactive
//
smiles_notation: C=C(C)[C@@H]1CC[C@]2(C(N)=O)CC[C@]3(C)[C@H](CC[C@@H]4[C@@]5(C)C/C(=C/c6cccnc6)C(=O)C(C)(C)[C@@H]5CC[C@]43C)[C@@H]12
group: inactive
